test system: MOLT-4 leukemia; assay: NCI-60 one-dose screen, 48 h (100 = growth as untreated, 0 = no growth, -100 = all killed); settings: 10 µM unless noted
This is part of a sample that, as a whole, favours compounds with a hit. Of some 83,000 tested, about 20% had one in any assay.
Metric: growth (%)

Molecule	Metric	Readout Number
C=C(C)[C@@H]1C[C@H](O)Cc2cc(Cl)cc(Cl)c2N1	growth	88.3
C[C@]12C[C@H](O)[C@H]3[C@@H](CCC4=CC(=O)CC[C@@]43C)[C@@H]1CC[C@@H]2C(=O)CO	growth	116
Cc1cc2c(cc1[N+](=O)[O-])NC(CNC(C)C)CC2 (stereo not given)	growth	69.6
CC12CCC3C(CCC4CC(=O)/C(=C\O)CC43C)C1CCC(=O)O2 (stereo not given)	growth	106
Clc1ccc(CCC(Cn2ccnc2)Sc2c(Cl)cccc2Cl)cc1 (stereo not given)	growth	34.6
CCCCC1Nc2nc(SC)n(C)c(=O)c2CN(Cc2ccccc2)C1=O (stereo not given)	growth	120
COc1ccc(-c2noc(N)c2-c2cc(OC)c3c(c2)OCO3)cc1	growth	18.4
O=[N+]([O-])c1cnc(Sc2ccncn2)c([N+](=O)[O-])c1	growth	-41.2
Cc1c(N(C)CS(=O)(=O)O)c(=O)n(-c2ccccc2)n1C	growth	83
CN(CC(=O)N(Cc1ccc(C2CCCCC2)cc1)c1ccc(C(=O)O)cc1)S(=O)(=O)c1c(F)c(F)c(F)c(F)c1F	growth	-15.9
O=C(/C=C/c1cc2ccccc2[nH]c1=O)c1ccc(O)cc1	growth	30.9
COc1cc(/C=C/c2nnc(-c3cc(-c4ccccc4)n[nH]3)o2)cc(OC)c1OC	growth	69
CN(CC(=O)Nc1nc2ccccc2[nH]1)S(=O)(=O)c1ccc(Cl)cc1	growth	58.5
COc1c(C)c2c(c(O)c1C/C=C(\C)CCC(=O)OCCN1CCOCC1)C(=O)OC2	growth	24.4
CC(C)C/C(=N\NC(=O)c1ccncc1)c1cc(Cl)ccc1O	growth	3.56
COC(=O)c1ccc2c(c1)nc(-c1ccc(O)c(OC)c1)n2-c1cc(C(C)(C)C)[nH]n1	growth	81.2
Cc1[nH]n(C(N)=S)c(=O)c1N=Nc1ccc(F)c(Cl)c1	growth	76.9
CO[C@H]1/C=C/O[C@@]2(C)Oc3c(C)c(O)c4c(O)c(c(/C=N/N5CCN(C)CC5)c(O)c4c3C2=O)NC(=O)/C(C)=C\C=C\C(C)[C@H](O)[C@@H](C)[C@@H](O)[C@@H](C)[C@@H](OC(C)=O)[C@@H]1C (stereo not given in full)	growth	102
O=C(Nc1ccc(OCc2nnc(-c3ccccc3)o2)c(F)c1)Nc1ccc(Cl)c(C(F)(F)F)c1	growth	13.7
COc1ccc(Nc2nccc(N3CCN(c4c5ccc(Cl)cc5nc5ccc(OC)cc45)CC3)n2)cc1	growth	-2.31
COC(=O)CCC1=C(C)C(C)=N/C1=C\c1[nH]c(-c2ccc[nH]2)cc1OC	growth	-29.7
OC(Cc1cccnc1)c1ccccc1 (stereo not given)	growth	94.3
O=C(Nc1cccc(-n2cc(-c3ccncc3)c(-c3ccc(O)c(Cl)c3)n2)c1)Nc1ccc(Cl)c(C(F)(F)F)c1	growth	-20.6
COc1cc(C2=NN(C(C)=O)C(c3ccc(OC(C)=O)cc3OC(C)=O)O2)c(OC(C)=O)c2ccccc12 (stereo not given)	growth	-2.56
CCOC(=O)c1c2c(c(C)n1Cc1ccc(OC)cc1)-c1nc(N)ncc1CC2	growth	93.6
COc1ccc2c(c1)/C(=C\c1c[nH]c3ccc(F)cc13)C(=O)N2	growth	50.6
Cc1cc(NC(=O)Nc2cccc3ccccc23)no1	growth	106
C[C@]12CC[C@@H]3c4ccc(O)cc4CC[C@H]3[C@@H]1CC[C@@H]2NS(=O)(=O)c1cccc(Br)c1	growth	36.3
O=C1/C(=C/c2ccc([N+](=O)[O-])o2)Oc2ccc(Cl)cc21	growth	-12.4
C[n+]1ccc(Nc2ccc(NC(=O)c3ccc(Nc4cc[n+](C)c5ccc(N)cc45)cc3)cc2)cc1	growth	97.5
S=c1[nH]nc2sc3ccccc3n12	growth	92.7
OCc1nnn(-c2ccccc2)c1CO	growth	106
Clc1ccc2nc(Cl)c3ccccc3c2c1	growth	83
O=C(CSCC(=O)N/N=C/c1ccccc1O)N/N=C\c1ccccc1O	growth	-4.94
O=Nc1ccc(O)c(=O)cc1	growth	14

* * *

system: DU-145 prostate; experiment: NCI-60 one-dose screen, 48 h (100 = growth as untreated, 0 = no growth, -100 = all killed); conditions: 10 µM unless noted
About 83,000 compounds went through this panel and 20% of them were active in at least one assay; those are over-represented in the sample as a whole.
Readings of growth for the listed compounds
Metric: growth (%)

> print(dat)
                                   compound  readout.number
1  O=C(/C(=C/c1cccc([N+](=O)[O-])c1)c1ccccc1)c1ccccc1            19.8
2  COc1ccc(C2=NNC(c3cc(Cc4ccc(O)c(C5CC(c6ccc(OC)cc6)=NN5)c4)ccc3O)C2)cc1 (stereo unspecified)            69.3
3  COc1ccc(/C=C/C(=O)Nc2cccnc2Nc2ccc(F)cc2)cc1             118
4  COc1ccccc1[C@H]1c2[nH]c3ccccc3c2C[C@H]2C(=O)N(CCCCCCC(=O)NO)CC(=O)N12            43.7
5  COc1cc(/C=C/C(=O)N2CCN(C(=O)/C=C/c3ccccc3)CC2)cc(OC)c1OC             129
6  Cc1cc(C(C)(C)c2cc(C)c(O)c(CN(C)C)c2)cc(CN(C)C)c1O            97.1

* * *

test system: U251 CNS; test: NCI-60 one-dose screen, 48 h; details: 10 µM unless noted
The panel holds about 83,000 compounds, 20% with a hit somewhere; the sample as a whole holds those more often. Activity calls are given as the source filed them. How the source made its calls: active means growth percent below 10; inactive means the rest.
Outcomes: Yes = active, No = inactive

> print(dat)
                                    compound  class.name
 1                     CN1COc2ccc3ccccc3c2C1          No
 2        Cc1cc(=O)n2n1-c1ccc(Cl)cc1NC(=O)C2          No
 3  O=C(Nc1nc(-c2ccc(Cl)cc2)cs1)c1cc(O)c(O)c(O)c1          No
 4     CCCCCCCC/C=C/CCCCCCCC1=NC(C)(C)CN1CCO         Yes
 5  Nc1nc(SCc2ccccc2Cl)c(-c2ccccc2)c(SCc2ccccc2Cl)n1          No
 6  CCOc1cc(-c2ccc[nH]2)[nH]c1/C=C1\N=C(C)C(C(=O)OC)=C1C         Yes
 7             S=C1SCN(Cc2ccccc2)CN1Cc1ccco1          No
 8                Cn1[nH]cc(/C=N/C(N)=O)c1=O          No
 9  C/C(=N\N1CC(=O)NC1=O)c1ccc([N+](=O)[O-])o1          No
10  O=C(CCc1nnc(SCc2ccccc2)s1)c1nc2ccccc2[nH]1          No
11  CCCc1nn(C)c2c(=O)[nH]c(-c3cc(S(=O)(=O)N4CCN(C)CC4)ccc3OCC)nc12          No
12  CCOC(=O)C1=C(COCCN)NC(C)=C(C(=O)OC)C1c1ccccc1Cl (stereo unspecified)          No
13     Cc1c(C(N)=O)sc2ncn(Cc3ccccc3)c(=O)c12          No
14                  CCCCCCCCSc1ncnc2c1ncn2CO          No
15  O=c1ccn(C2OC(CO)C(O)C2F)c(=O)[nH]1 (stereo unspecified)          No
16  COc1ccc2c(c1)C(=O)c1c-2c(OCCCN(C)C)nc2cc(Br)ccc12         Yes
17  CCOC(=O)C(Cc1ccccc1)(C(=O)OCC)C(Br)C(=O)c1ccccc1 (stereo unspecified)          No
18  COc1ccc(-n2nc3c(c2-c2ccc(OC)c(OC)c2)-c2oncc2CC3)cc1          No
19  COc1ccc(Nc2ccnc(NCCCNc3ccnc4cc(Cl)ccc34)n2)cc1         Yes
20  COC(=O)[C@]1(C(C)C)N[C@H](c2cn(-c3ccccc3)nc2-c2ccccc2)[C@@H]2C(=O)N(c3ccc(Cl)cc3)C(=O)[C@@H]21          No
21  O=C(NCCc1ccccc1)C1CCC(=O)N1Cc1ccc(Br)cc1 (stereo unspecified)          No
22                   COc1cccc(-c2nnc(N)o2)c1          No
23            CC(c1cc(Cl)ccc1O)c1cc(Cl)ccc1O          No
24  COc1ccc(Cn2cc3c(c2-c2ccccc2)CCc2cncnc2-3)cc1          No
25                    NC(=O)NN=C(C1CC1)C1CC1          No
26  CCC(=O)Nc1ccccc1C#C/C=C\C#Cc1ccccc1C(F)(F)F          No
27  CC(C)(C)c1ccc(C(O)CCCN2CCC(C(O)(c3ccccc3)c3ccccc3)CC2)cc1 (stereo unspecified)         Yes
28  COc1cccc2c1O/C(=C\c1c([N+](=O)[O-])ncn1C)C2=O          No
29     O=C1c2nsnc2C(=O)c2c(F)c(F)c(F)c(F)c21         Yes
30  CSc1ccc2c(c1)N(CCC1CCCCN1C)c1ccccc1S2 (stereo unspecified)          No
31            O=C1Cc2cc(CCn3cncn3)c(Cl)cc2N1          No
32          Cc1cc([N+](=O)[O-])c(C)cc1C(=O)O          No
33  Fc1ccc(-c2nnc(/C=C/c3cn(-c4ccccc4)nc3-c3ccccc3)o2)cc1          No
34  COc1ccc(/C=C/C(=O)Nc2cccnc2Nc2ccc(F)cc2)cc1          No
35  COc1ccc(-c2cc(C(=O)Nc3nc4cc(C)c(C)cc4s3)nc3cc(-c4ccccc4)nn23)cc1OC          No
36  OC(Cc1cccnc1)c1ccccc1 (stereo unspecified)          No
37  COc1cc(/C=C/C(=O)N2CCN(C(=O)/C=C/c3ccccc3)CC2)cc(OC)c1OC          No
38  COc1ccc(-c2cn(-c3ccccc3)c(-c3ccccc3)n2)cc1OC          No
39  Oc1ccc(-c2nn(-c3ccccc3)cc2-c2nc3ccccc3s2)cc1          No
40  Cn1cc(-c2csc(-c3c[nH]c4ncccc34)n2)c2cc(F)cnc21          No
41  O=C(CCc1nnc2sc(Cc3ccccc3Cl)nn12)c1nc2ccccc2[nH]1          No
